target-desc: Prostaglandin G/H synthase 1 (Ovis aries, UniProt P05979)
Sequence (P05979 whole entry): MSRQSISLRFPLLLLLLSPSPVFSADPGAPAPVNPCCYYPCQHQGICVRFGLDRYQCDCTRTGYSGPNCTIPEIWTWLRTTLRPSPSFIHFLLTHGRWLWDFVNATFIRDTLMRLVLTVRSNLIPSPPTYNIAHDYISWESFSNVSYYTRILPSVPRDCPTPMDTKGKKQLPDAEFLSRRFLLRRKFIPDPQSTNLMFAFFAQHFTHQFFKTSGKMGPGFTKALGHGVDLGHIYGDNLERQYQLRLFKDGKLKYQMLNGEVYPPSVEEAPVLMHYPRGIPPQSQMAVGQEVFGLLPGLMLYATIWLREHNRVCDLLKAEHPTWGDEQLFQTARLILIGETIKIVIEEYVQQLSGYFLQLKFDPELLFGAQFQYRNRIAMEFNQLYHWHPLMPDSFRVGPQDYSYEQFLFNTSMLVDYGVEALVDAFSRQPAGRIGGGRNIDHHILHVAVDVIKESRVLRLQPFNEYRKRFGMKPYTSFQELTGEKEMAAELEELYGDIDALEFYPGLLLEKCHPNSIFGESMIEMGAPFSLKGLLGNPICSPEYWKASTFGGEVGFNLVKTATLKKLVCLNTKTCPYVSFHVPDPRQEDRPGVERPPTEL
method-notes: Inhibition of sheep COX1 by spectrophotometry
metric-name: IC50 (µM)
Note: unit µM is implicit; provide only the numeric part.

Reference set, count: 4
# compound, target-desc, value-measured
measured = [
    ("CS(=O)(=O)c1ccc(C(=O)c2ccoc2)cc1", "Prostaglandin G/H synthase 1 (Ovis aries, UniProt P05979)", 150),
    ("CS(=O)(=O)c1ccc(C2Oc3ccccc3-n3cccc32)cc1 (stereo not given)", "Prostaglandin G/H synthase 1 (Ovis aries, UniProt P05979)", 177),
    ("CS(=O)(=O)c1ccc(Nc2ccc(F)cc2)cc1", "Prostaglandin G/H synthase 1 (Ovis aries, UniProt P05979)", 141),
    ("Cn1cc(C(=O)c2ccc(S(C)(=O)=O)cc2)c2ccccc21", "Prostaglandin G/H synthase 1 (Ovis aries, UniProt P05979)", 76.4),
]

Here's the next entry for you.
Could you share which IC50 value was measured for CS(=O)(=O)c1ccc(-c2ccccn2)cc1 ?
89.6

* * *

Tested on: NCI-H460
method-notes: Cytotoxicity against human NCI-H460 cells assessed as inhibition of cell viability at 10 uM by MTT assay
Format: functional
metric-name: inhibition at 10 µM (%)
Note: unit % is implicit; provide only the numeric part.

Reference set, count: 5
# compound, metric-name, value-measured
records = [
    ("CS(=O)(=O)c1ccc(C(=O)c2ccoc2)cc1", "inhibition at 10 µM", 6),
    ("CS(=O)(=O)c1ccc(-n2ccc3ccccc32)cc1", "inhibition at 10 µM", 12.2),
    ("CC(C)[C@H](CO)Nc1nc(Nc2cccc(Cl)c2)c2ncn(C(C)C)c2n1 [PURVALANOLA]", "inhibition at 10 µM", 3.98),
    ("CS(=O)(=O)c1ccc(C(=O)c2cccs2)cc1", "inhibition at 10 µM", 3),
    ("CS(=O)(=O)c1ccc(C(=O)c2cccn2-c2ccccc2F)cc1", "inhibition at 10 µM", 13.3),
]

Could you share which inhibition at 10 µM value was measured for Cc1ccc(-c2cc(C(F)(F)F)nn2-c2ccc(S(N)(=O)=O)cc2)cc1 [CELECOXIB] ?
9.75

Could you share which inhibition at 10 µM value was measured for CS(=O)(=O)c1ccc(C(=O)c2ccco2)cc1 ?
3

Could you share which inhibition at 10 µM value was measured for Cn1cc(C(=O)c2ccc(S(C)(=O)=O)cc2)c2ccccc21 ?
7

Could you share which inhibition at 10 µM value was measured for CS(=O)(=O)c1ccc(C(=O)c2ccc(Br)cc2)cc1 ?
12.7

Could you share which inhibition at 10 µM value was measured for CS(=O)(=O)c1ccc(C2Oc3ccccc3-n3cccc32)cc1 (stereo not given) ?
6.6

Could you share which inhibition at 10 µM value was measured for CS(=O)(=O)c1ccc(-n2cccc2)cc1 ?
3

Could you share which inhibition at 10 µM value was measured for CS(=O)(=O)c1ccc(N2CCN(c3ccc(F)cc3)CC2)cc1 ?
3.1

Could you share which inhibition at 10 µM value was measured for CS(=O)(=O)c1ccc(C(=O)c2ccsc2)cc1 ?
2

Could you share which inhibition at 10 µM value was measured for CS(=O)(=O)c1ccc(C(=O)c2ccn(-c3ccccc3F)c2)cc1 ?
54.8

Could you share which inhibition at 10 µM value was measured for CS(=O)(=O)c1ccc(Nc2ccc(F)cc2)cc1 ?
1.8

* * *

method-notes: Cytotoxicity against human HDF cells assessed as inhibition of cell viability at 100 uM by MTT assay
Format: cell-based
applied-conditions: read-out: INH
cytotoxicity at 100 µM vs 30%: at or above is Fulfilled, below is Not fulfilled.

# compound, class
measured = [
    ("CS(=O)(=O)c1ccc(-n2cccc2)cc1", "Not fulfilled"),
    ("CS(=O)(=O)c1ccc(C2Oc3ccccc3-n3cccc32)cc1 (stereo not given)", "Not fulfilled"),
    ("CS(=O)(=O)c1ccc(C(=O)c2ccsc2)cc1", "Fulfilled"),
    ("Cc1ccc(-c2cc(C(F)(F)F)nn2-c2ccc(S(N)(=O)=O)cc2)cc1", "Fulfilled"),
    ("CS(=O)(=O)c1ccc(C(=O)c2ccn(-c3ccccc3F)c2)cc1", "Not fulfilled"),
]

Hi, just wondering whether CS(=O)(=O)c1ccc(C(=O)c2cccn2-c2ccccc2F)cc1 shows cytotoxicity at 100 µM of 30% or higher.
Fulfilled

Hi, just wondering whether CS(=O)(=O)c1ccc(C(=O)c2ccoc2)cc1 shows cytotoxicity at 100 µM of 30% or higher.
Fulfilled

Hi, just wondering whether CS(=O)(=O)c1ccc(-n2ccc3ccccc32)cc1 shows cytotoxicity at 100 µM of 30% or higher.
Fulfilled

Hi, just wondering whether CS(=O)(=O)c1ccc(C(=O)c2cccs2)cc1 shows cytotoxicity at 100 µM of 30% or higher.
Not fulfilled

Hi, just wondering whether CS(=O)(=O)c1ccc(N2CCN(c3ccc(F)cc3)CC2)cc1 shows cytotoxicity at 100 µM of 30% or higher.
Fulfilled

Hi, just wondering whether CC(C)[C@H](CO)Nc1nc(Nc2cccc(Cl)c2)c2ncn(C(C)C)c2n1 shows cytotoxicity at 100 µM of 30% or higher.
Fulfilled

Hi, just wondering whether CS(=O)(=O)c1ccc(Nc2ccc(F)cc2)cc1 shows cytotoxicity at 100 µM of 30% or higher.
Fulfilled

* * *

method-notes: Cytotoxicity against human HDF cells assessed as inhibition of cell viability at 100 uM by MTT assay
Assay type: cell-based
applied-conditions: read-out: INH
metric-name: cytotoxicity at 100 µM (%)
Note: unit % is implicit; provide only the numeric part.

# compound-string, value-measured
records = [
    ("CS(=O)(=O)c1ccc(C(=O)c2ccc(Br)cc2)cc1", 29.4),
]

Could you share which cytotoxicity at 100 µM value was measured for CS(=O)(=O)c1ccc(C(=O)c2ccco2)cc1 ?
30.7

Could you share which cytotoxicity at 100 µM value was measured for Cn1cc(C(=O)c2ccc(S(C)(=O)=O)cc2)c2ccccc21 ?
30.8

The reported numbers originate from ChEMBL document CHEMBL1240529.
